Entries and their growth
tested on: NCI-H23 lung; test: NCI-60 one-dose screen, 48 h (100 = growth as untreated, 0 = no growth, -100 = all killed); details: 10 µM unless noted
This is part of a sample that, as a whole, favours compounds with a hit. Of some 83,000 tested, about 20% had one in any assay.
Field format: number, assumed %, no unit text.

compound="CC(=O)Oc1c(C)c(OC(C)=O)c2c(c1C(C)=O)OC1CC(=O)C(C(C)=O)=C(O)C21C (configuration not stated)" observedresult=90.9
compound=CN(C)c1ccc2[nH]c3c(C(N)=O)cc(=O)c(=O)c=3oc2c1 observedresult=34.9
compound="ClC1C2CC(c3ccccc32)C1Cl (configuration not stated)" observedresult=106
compound=NNC(=O)NO observedresult=98.6
compound=COc1c(O)cc2oc3cc(O)c(CC=C(C)C)c(O)c3c(=O)c2c1C/C=C(\C)CCC=C(C)C observedresult=33.5

Ask | What does the data say about its growth? Entry: COc1ccc(/C=C2\NC(=S)NC2=O)cc1
Reply | 113

Ask | And O=C(CN1CCCCC1)Sc1nnc2sc3ccccc3n12 ?
Reply | 93.1

Ask | And Cc1c(C)c(N2C(=O)C=CC2=O)c(C)c(C)c1N1C(=O)C=CC1=O ?
Reply | 96.3

Ask | And O=C(C=C=Nc1ccccc1)C(=O)N=C=Cc1ccccc1 ?
Reply | 63.3

Ask | And Clc1ccc(-c2nc(-c3cccs3)no2)c(Cl)c1 ?
Reply | 92.6

Ask | And Cc1cc(C)c2c(c1)N1OC(C2)C[C@H]1/C=C/c1ccccc1 (some centres not stated) ?
Reply | 88.5

Ask | And COc1ccc(Nc2ccnc(NCCCNc3ccnc4cc(Cl)ccc34)n2)cc1 ?
Reply | 58.1

----------
system: UACC-257 melanoma; experiment: NCI-60 one-dose screen, 48 h (100 = growth as untreated, 0 = no growth, -100 = all killed); conditions: 10 µM unless noted
This is part of a sample that, as a whole, favours compounds with a hit. Of some 83,000 tested, about 20% had one in any assay. The source made the active and inactive calls. Rule for the calls: active = growth percent below 10; inactive = the rest.
Entries and their growth

compound="CCOC(=O)C1=NN(c2ccc(Cl)cc2)C2C3N(c4ccc(Cl)cc4)N=C(C(=O)OCC)N3c3ccccc3N12 (centres undefined)" testedon="UACC-257 melanoma" resulttype=growth observedresult="119% (inactive)"
compound=CC(C)[O-].CC(C)[O-].CN(CCN(C)Cc1cc(F)cc(F)c1[O-])Cc1cc(F)cc(F)c1[O-].[Ti+4] testedon="UACC-257 melanoma" resulttype=growth observedresult="17.1% (inactive)"
compound=Cn1c(=O)c2nc(SCc3ccccc3)n(C)c2n(C)c1=O testedon="UACC-257 melanoma" resulttype=growth observedresult="111% (inactive)"
compound=COC(=O)[C@]1(C(C)C)N[C@H](c2cn(-c3ccccc3)nc2-c2ccccc2)[C@@H]2C(=O)N(c3ccc(Cl)cc3)C(=O)[C@@H]21 testedon="UACC-257 melanoma" resulttype=growth observedresult="107% (inactive)"
compound=Cc1cc(N2CCOCC2)nc(N2CCOCC2)n1 testedon="UACC-257 melanoma" resulttype=growth observedresult="105% (inactive)"
compound=Cc1[nH]n(C(N)=S)c(=O)c1N=Nc1ccc(F)c(Cl)c1 testedon="UACC-257 melanoma" resulttype=growth observedresult="124% (inactive)"
compound=CC(C)c1ccc(C(=O)Nc2sc3c(CN(C)C)c(O)ccc3c2C(N)=O)cc1 testedon="UACC-257 melanoma" resulttype=growth observedresult="9.32% (active)"
compound=N#Cc1ccc(NC(=O)Nc2ccc(Oc3ccc(NC(=O)Nc4ccc(C#N)cc4)cc3)cc2)cc1 testedon="UACC-257 melanoma" resulttype=growth observedresult="37% (inactive)"

Query compound follows.
Ask | // lookup growth | system=UACC-257 melanoma | key= O=C1NCN(CCO)CN1
Reply | 96.7% (inactive)

----------
Entries and their growth
system: SF-295 CNS; test: NCI-60 one-dose screen, 48 h (100 = growth as untreated, 0 = no growth, -100 = all killed); conditions: 10 µM unless noted
Compounds without any hit were thinned out: in the full panel of roughly 83,000, 20% have a hit.
Field format: number, assumed %, no unit text.

Ask | What does the data say about its growth? Entry: O=C(/C=C/c1ccccc1)CC(c1ccccc1)N1CCOCC1 (centres undefined)
Reply | 98.7

Ask | And N#Cc1cccc(/C=C(/C(=O)c2ccccc2)c2ccccc2)c1 ?
Reply | 63.5

Ask | And CCOC(=O)/C(=C/c1ccccc1)C(=O)c1ccccc1 ?
Reply | 83

Ask | And O=C1OC(c2ccc(-c3ccccc3)cc2)=C/C1=C/c1cccs1 ?
Reply | 95.8

----------
Entries and their growth
test system: SK-MEL-28 melanoma; experiment: NCI-60 one-dose screen, 48 h (100 = growth as untreated, 0 = no growth, -100 = all killed); settings: 10 µM unless noted
The panel holds about 83,000 compounds, 20% with a hit somewhere; the sample as a whole holds those more often.
Field format: number, assumed %, no unit text.

Would you please look over these solved cases?
compound="CSc1nc2c(c(=O)[nH]1)C(c1ccc(Cl)cc1)C1=C(N2)/C(=C/c2ccc(Cl)cc2)CNC1 (stereo not drawn)" readoutunits=% observedresult=87.9
compound=COc1cc2c(c(OC)c1OC)CCc1cnoc1-2 readoutunits=% observedresult=123
compound=Nc1ncc(-c2cnn(C3CCNCC3)c2)cc1-c1nc2cc(Cl)ccc2o1 readoutunits=% observedresult=-100
compound=c1cnc2ccc3ncccc3c2c1 readoutunits=% observedresult=85.5
compound=O=C1c2ccccc2-c2c1nc1ccccc1[n+]2[O-] readoutunits=% observedresult=113

Query compound follows.
Ask | // lookup growth | system=SK-MEL-28 melanoma | key= COc1cc(OC)c2cc(C(=O)O)c(=O)oc2c1
Reply | 118

----------
system: LOX IMVI melanoma; assay: NCI-60 one-dose screen, 48 h (100 = growth as untreated, 0 = no growth, -100 = all killed); conditions: 10 µM unless noted
Compounds without any hit were thinned out: in the full panel of roughly 83,000, 20% have a hit.
Entries and their growth
Field format: number, assumed %, no unit text.

Would you please look over these solved cases?
compound="CC(=O)c1nc2ccccc2n1CCn1cc(CC(N)C(=O)O)c2ccccc21 (centres undefined)" resulttype=growth observedresult=89.4
compound="CCCCCCC(C)(O)c1ccccc1 (centres undefined)" resulttype=growth observedresult=92
compound=COc1ccc(/C=C(\C#N)c2ccccc2)cc1 resulttype=growth observedresult=89.7
compound=CCCCCCCC/C=C/CCCCCCCC1=NC(C)(C)CN1CCO resulttype=growth observedresult=-74.6
compound="CC(C)(C)c1ccc(C(O)CCCN2CCC(C(O)(c3ccccc3)c3ccccc3)CC2)cc1 (centres undefined)" resulttype=growth observedresult=-93.9
compound="CCC(C)CC(C)C(=O)c1c(O)ccn(OC)c1=O (centres undefined)" resulttype=growth observedresult=32.4

Ask | // lookup growth | system=LOX IMVI melanoma | key= Clc1ncn[nH]1
Reply | 102

Ask | And COc1ccc2c(c1)nc(N)c1c3cc(C)c(C)cc3cn21 ?
Reply | 75.4

Ask | And CCCCCCCCCCC[C@@H](C[C@H]1OC(=O)[C@H]1CCCCCC)OC(=O)[C@@H](CC(C)C)NC=O ?
Reply | 14.1

Ask | And C=C(C)[C@H]1CC/C(C)=C/CC[C@]2(C)O[C@H]2CC/C(C=O)=C\C1O (some centres undefined) ?
Reply | 98.1

Ask | And O=C1c2ccccc2-c2c1nc1ccccc1[n+]2[O-] ?
Reply | 101

Ask | And O=C(/C=C/c1cc2ccccc2[nH]c1=O)c1ccc(O)cc1 ?
Reply | 26.8

----------
tested on: CAKI-1 renal; test: NCI-60 one-dose screen, 48 h; details: 10 µM unless noted
About 83,000 compounds went through this panel and 20% of them were active in at least one assay; those are over-represented in the sample as a whole. The source made the active and inactive calls. How the source made its calls: active means growth percent below 10; inactive means the rest.
Hello, when you answer, please use one of the following outcomes: label 1 for active, label 0 for inactive

compound=CCCCN(CCCC)CCCOC(=O)c1ccc(N)cc1 testedon="CAKI-1 renal" labelclass="label 0"
compound=Oc1ccccc1C=Nc1ccccc1N=Cc1ccccc1O.[Cu+2] testedon="CAKI-1 renal" labelclass="label 0"
compound=CN1CCN(Cc2ccc(NC(=O)c3[nH]ncc3Nc3ccnc4ccnn34)cc2)CC1 testedon="CAKI-1 renal" labelclass="label 0"

Ask | Could you please tell me the result logged for COc1cc2c(C#N)n3c(c2cc1OC)C(=O)C(c1ccccc1)Oc1ccccc1-3 (configuration not stated) in this assay?
Reply | label 0

Ask | And Nc1ccc(C2=NN(c3ccccc3)C(c3ccc(Cl)cc3)C2)cc1 (configuration not stated) ?
Reply | label 0

Ask | And COc1cc(/C=C/C(=O)Nc2cccnc2Nc2cc(OC)c(OC)c(OC)c2)cc(OC)c1OC ?
Reply | label 0
